# ASSAYED TARGET: mCB2R (Mus musculus)
# Sequence (P47936 whole entry): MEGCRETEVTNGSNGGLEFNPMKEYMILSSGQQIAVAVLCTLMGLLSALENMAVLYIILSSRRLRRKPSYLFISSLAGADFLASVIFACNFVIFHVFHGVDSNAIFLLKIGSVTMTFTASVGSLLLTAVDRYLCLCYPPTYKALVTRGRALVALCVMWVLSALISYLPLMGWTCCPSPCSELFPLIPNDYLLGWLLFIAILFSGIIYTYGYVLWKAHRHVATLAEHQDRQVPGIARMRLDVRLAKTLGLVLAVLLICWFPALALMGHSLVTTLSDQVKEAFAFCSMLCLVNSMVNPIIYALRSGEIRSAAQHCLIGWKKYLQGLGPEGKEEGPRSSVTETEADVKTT
# TEST: biochemical
# Assay type: binding
# Set-up: from tissue; host or cells: spleen of male C57BL/6J mice
PROPERTY MEASURED: pKi
Answers are plain numbers, as −log10 of the molar value.

CCCCCCC(C)(C)c1cc(OC)c([C@@H]2C=C(CO)[C@@H]3C[C@H]2C3(C)C)c(OC)c1
7.15

Lab note: next compound to report on.
Looking up CCCCC/C=C\C/C=C\C/C=C\C/C=C\CCCC(=O)NCCO [Anandamide, N-arachidonoylethanolamine] , I found its pKi recorded as 6.46

====

# ASSAYED TARGET: hCB1R (Homo sapiens, UniProt P21554)
# Construct: host or cells: CHO
# Sequence (P21554 whole entry): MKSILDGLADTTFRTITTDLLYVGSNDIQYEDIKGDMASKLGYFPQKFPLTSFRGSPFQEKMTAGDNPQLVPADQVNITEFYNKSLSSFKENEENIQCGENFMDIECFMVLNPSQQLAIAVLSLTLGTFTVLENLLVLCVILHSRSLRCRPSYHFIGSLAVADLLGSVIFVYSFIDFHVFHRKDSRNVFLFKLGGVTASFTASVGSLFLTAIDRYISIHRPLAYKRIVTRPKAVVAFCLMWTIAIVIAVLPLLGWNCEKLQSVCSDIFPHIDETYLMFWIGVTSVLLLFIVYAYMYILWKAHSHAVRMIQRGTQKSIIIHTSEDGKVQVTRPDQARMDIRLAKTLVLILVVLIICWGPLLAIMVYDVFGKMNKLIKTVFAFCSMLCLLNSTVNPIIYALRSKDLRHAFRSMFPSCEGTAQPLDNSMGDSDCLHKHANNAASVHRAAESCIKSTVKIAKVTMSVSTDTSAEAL
# TEST: biochemical
# Type: binding
# PARTICULARS: CHO membranes; Leiden, HU210 and SR144528 from Roche
Could you please report measured pKi ± SEM hCB1R for the items listed next?
One number for each entry.

Cc1ccc2c(c1)Cc1c(C(=O)NN3CCCCC3)nn(-c3ccc(Cl)cc3Cl)c1-2
6.97

Lab note: next compound to report on.
Looking up CN1CCCC[C@@H]1Cn1cc(C(=O)c2cc([N+](=O)[O-])ccc2I)c2ccccc21 [(R)-AM1241] , I found its pKi ± SEM hCB1R recorded as 6.86
